So I've got a bunch of compounds here, and I need their IC50 values.
# TGT: Sentrin-specific protease 6 (Homo sapiens, UniProt Q9GZR1)
# Sequence (Q9GZR1 whole entry): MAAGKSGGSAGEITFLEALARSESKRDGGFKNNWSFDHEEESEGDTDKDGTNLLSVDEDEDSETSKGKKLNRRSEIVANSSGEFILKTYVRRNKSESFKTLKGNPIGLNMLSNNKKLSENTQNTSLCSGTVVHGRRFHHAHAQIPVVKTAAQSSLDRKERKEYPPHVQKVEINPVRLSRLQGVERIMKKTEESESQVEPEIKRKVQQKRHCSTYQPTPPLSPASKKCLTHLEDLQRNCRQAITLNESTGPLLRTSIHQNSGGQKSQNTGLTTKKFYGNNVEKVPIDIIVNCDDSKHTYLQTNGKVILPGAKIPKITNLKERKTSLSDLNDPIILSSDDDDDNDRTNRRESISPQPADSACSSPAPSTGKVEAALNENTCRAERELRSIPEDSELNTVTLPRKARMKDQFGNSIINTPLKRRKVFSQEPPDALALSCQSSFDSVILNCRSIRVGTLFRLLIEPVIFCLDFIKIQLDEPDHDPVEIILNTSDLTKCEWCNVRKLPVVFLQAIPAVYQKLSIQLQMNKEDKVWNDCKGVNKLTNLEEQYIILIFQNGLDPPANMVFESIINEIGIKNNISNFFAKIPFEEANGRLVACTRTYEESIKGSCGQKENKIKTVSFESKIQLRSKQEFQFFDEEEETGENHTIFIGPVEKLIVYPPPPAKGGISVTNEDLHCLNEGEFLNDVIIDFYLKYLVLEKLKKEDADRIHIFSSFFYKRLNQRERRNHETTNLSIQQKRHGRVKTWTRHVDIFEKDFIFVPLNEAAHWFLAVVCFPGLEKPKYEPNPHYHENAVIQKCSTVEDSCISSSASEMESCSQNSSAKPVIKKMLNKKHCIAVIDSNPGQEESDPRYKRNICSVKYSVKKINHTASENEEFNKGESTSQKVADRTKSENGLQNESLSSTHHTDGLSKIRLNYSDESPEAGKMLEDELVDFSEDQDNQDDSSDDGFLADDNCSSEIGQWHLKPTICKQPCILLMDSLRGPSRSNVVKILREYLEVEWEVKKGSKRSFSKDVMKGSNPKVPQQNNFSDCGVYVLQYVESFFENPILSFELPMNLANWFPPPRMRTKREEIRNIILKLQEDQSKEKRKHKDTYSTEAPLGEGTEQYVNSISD
# Type: functional
Activity calls are given as the source filed them.

Data request: Look at this compound and give its reported IC50. "COc1cc(NC(=O)c2cccc(Br)c2)nc(OC)n1"
Data returned: 31 µM (active)

Data request: Ok, now "Cc1ccc(/C=N/N=C/c2ccc(C)s2)s1"
Data returned: 18.7 µM (active)

Data request: Ok, now "CCOC(=O)/C=C/c1ccc2oc3ccccc3c(=O)c2c1"
Data returned: 16.6 µM (active)

Data request: Ok, now "COc1ccc(/C=N/Nc2cc(N(C)C)nc(N(C)C)n2)cc1"
Data returned: 5.62 µM (active)

Data request: Ok, now "O=C(CSc1ncnc2ccccc12)c1cccs1"
Data returned: 23.9 µM (active)

Data request: Ok, now "Cc1ccc(-c2nc3sc4c(c3c(=O)n2N)CCCC4)cc1"
Data returned: 18.2 µM (active)

Data request: Ok, now "C/C(=N\c1cccc(C)c1)c1sc2ccccc2c1O"
Data returned: 12.7 µM (active)

----------
# TGT: Cytochrome P450 2C19 (Homo sapiens)
# Sequence (P33261 whole entry): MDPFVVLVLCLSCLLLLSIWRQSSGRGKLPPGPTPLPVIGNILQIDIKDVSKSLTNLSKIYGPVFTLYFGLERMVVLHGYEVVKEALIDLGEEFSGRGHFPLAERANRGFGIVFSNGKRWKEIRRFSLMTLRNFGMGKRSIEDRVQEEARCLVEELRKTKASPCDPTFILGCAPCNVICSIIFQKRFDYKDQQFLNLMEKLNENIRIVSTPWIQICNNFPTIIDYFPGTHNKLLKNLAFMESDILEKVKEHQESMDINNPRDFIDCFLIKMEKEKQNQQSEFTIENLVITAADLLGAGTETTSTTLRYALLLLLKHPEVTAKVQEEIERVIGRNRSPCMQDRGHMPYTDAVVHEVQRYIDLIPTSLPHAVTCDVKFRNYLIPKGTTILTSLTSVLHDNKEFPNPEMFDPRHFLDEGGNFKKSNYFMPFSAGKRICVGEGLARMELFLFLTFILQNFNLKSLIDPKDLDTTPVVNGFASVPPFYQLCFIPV
# TEST DESCRIPTION: Cytochrome panel assay with activity outcomes. Panel member name: p450-cyp2c19 Compounds with AC50 equal or less than 10 uM are considered active
# Assay type: functional
# CONDITION LABEL: read-out: AC50
PARAMETER MEASURED: AC50

Data request: Look at this compound and give its reported AC50. "NC(=NOC(=O)Cc1ccc(-c2ccccc2)cc1)c1cccc([N+](=O)[O-])c1"
Data returned: 2.82 µM (inconclusive)

Data request: Ok, now "Cc1ccc(Nc2nc(-c3c(C)nc4ncccn34)cs2)cc1"
Data returned: 0.0316 µM (inconclusive)

Data request: Ok, now "CCOC(=O)c1c(N=C(S)Nc2ccccc2)sc2c1CCN(CCc1ccccc1)C2"
Data returned: 22.4 µM (inconclusive)

Data request: Ok, now CCOC(=O)c1ccc(NC(=O)C2CCCO2)cc1 (stereo not drawn)
Data returned: 14.1 µM (inconclusive)

Data request: Ok, now "Oc1ccc(Oc2nc(N3CCOCC3)nc(N3CCOCC3)n2)nn1"
Data returned: 2.82 µM (inconclusive)

Data request: Ok, now "C[C@H](N[C@@H](C)COc1ccccc1)[C@H](O)c1ccc(O)cc1"
Data returned: 15.8 µM (inconclusive)

Data request: Ok, now O=C(NCC1CCCO1)c1ccc2c(=O)n(Cc3ccco3)c(SCC(=O)N3CCCC3)nc2c1 (stereo not drawn)
Data returned: 15.8 µM (inconclusive)

Data request: Ok, now "Cc1cc(SCC(=O)c2ccc(Br)cc2)cc(C)[o+]1"
Data returned: 0.398 µM (inconclusive)

Data request: Ok, now "O=S(=O)(c1ccccc1)c1cnn2c(C(F)(F)F)cc(-c3ccccc3)nc12"
Data returned: 39.8 µM (inconclusive)

Data request: Ok, now "CCOC(=O)c1cc(CC)sc1NC(=O)c1cc(OCC)c(OCC)c(OCC)c1"
Data returned: 25.1 µM (inconclusive)

Data request: Ok, now "CCCNC(=O)OC[C@@H]1O[C@H](CCO/N=C\c2ccc(C(=O)N3[C@H](c4ccc(C)cc4)[C@@H](C)CC[C@H]3C(=O)OC)cc2)C=C[C@@H]1Oc1ccc(OC)cc1"
Data returned: 1.26 µM (inconclusive)

Data request: Ok, now "Cc1ccc2nc(-c3ccccc3)c(CN(C)C)c(O)c2c1"
Data returned: 20 µM (inconclusive)

Data request: Ok, now "C[n+]1c(/C=C/c2ccc(O)c3ncccc23)[se]c2ccccc21"
Data returned: 3.98 µM (inconclusive)
